pKd overview
- tgt: T1, recombinant human activated Factor VII (FVIIa) (human, UniProt P08709 61-212; P08709 213-466, ten glutamate residues of the Gla domain may be gamma-carboxylated)
- T1 construct: chains tethered by a disulfide bond; also called Factor VIIa; rFVIIa
- T1 sequence 1: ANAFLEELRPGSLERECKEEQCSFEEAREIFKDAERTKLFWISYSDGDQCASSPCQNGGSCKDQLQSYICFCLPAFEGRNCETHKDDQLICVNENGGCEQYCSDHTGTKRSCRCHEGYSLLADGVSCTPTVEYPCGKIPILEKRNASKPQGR
- T1 sequence 2: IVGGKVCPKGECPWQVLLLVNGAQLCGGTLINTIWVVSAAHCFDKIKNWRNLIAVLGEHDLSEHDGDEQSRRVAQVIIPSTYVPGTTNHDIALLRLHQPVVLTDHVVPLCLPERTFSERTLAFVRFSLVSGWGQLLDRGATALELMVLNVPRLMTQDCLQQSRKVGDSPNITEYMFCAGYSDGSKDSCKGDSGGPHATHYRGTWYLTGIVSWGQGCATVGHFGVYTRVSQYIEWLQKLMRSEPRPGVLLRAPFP
- testMethodNotes: BLI (Fortebio)
For clarity, pKd is expressed as the negative log10 of concentration in mol/L.

binder: VH SEQ ID NO 570 / VL SEQ ID NO 446 (antibody, IgG4, V domains shown, humanized 11F2; IgG4 S228P/kappa) VH: QVQLQESGPGLVKPSDTLSLTCAVSGYSISSDSAWSWIRQPPGKGLEWIGYIQYSGSTNYNPSLKSRVTMSRDTSKNQFSLKLSSVTAADTAVYYCARSVNYYGNSFAVGPWGQGTLVTVSS VL: EIVLTQSPATLSLSPGERATLSCRASQGVSDYLAWYQQKPGQAPRLLIKYTSQPATGIPARFSGSGSGTDFTLTISSLEPEDFAVYYCQNGHSFPLTFGQGTKLEIK
measuredAttribute: pKd
observedResult: 7.62

binder: VH SEQ ID NO 610 / VL SEQ ID NO 406 (antibody, IgG4, V domains shown, humanized 11F2; IgG4 S228P/kappa) VH: QVQLQESGPGLVKPSQTLSLTCTVSGGSITSDSAWSWIRQPPGKGLEWIGYIQYSGSTNYNPSLKSRVTISVDTSKNQFSLKLSSVTAADTAVYYCARSVNYYGNSFAVGYWGQGTLVTVSS VL: EIVLTQSPATLSLSPGERATLSCRASQGVSDYLAWYQQKPGQAPRLLIKYASQPATGIPARFSGSGSGTDFTLTISSLEPEDFAVYYCQNGHSFPLTFGAGTKLEIK
measuredAttribute: pKd
observedResult: 6.32

The record that follows has no pKd shown yet.
Query :: Fill in reported pKd for this entry: VH SEQ ID NO 538 / VL SEQ ID NO 350 (antibody, IgG4, V domains shown, humanized 11F2; IgG4 S228P/kappa) VH: QVQLQESGPGLVEPSQTLSLTCTVSGYSITSDSAWSWIRQPPGKKLEWIGYIQYSGSTNYNPSLKSRVTISRDTSKNQFSLKLSSVTAADTAVYYCARSVNYYGNSFAVGYWGQGTLVTVSS VL: EIVLTQSPATLSLSPGERATLSCRASQGISDYLHWYQQKPGQAPRLLIKYTSQPATGIPARFSGSGSGTDFTLTISSLEPEDFAVYYCQNGHSFPLTFGAGTKLELK
Result :: 9.00

Reference source: patent US20220064329A1
